Listing of recorded IC50 by entry.
- testedTarget: Human eIF4E (aa 28-217) / biotin labeled 4G2 peptide (Homo sapiens (Human), UniProt P06730)
- Sequence (P06730 28-217): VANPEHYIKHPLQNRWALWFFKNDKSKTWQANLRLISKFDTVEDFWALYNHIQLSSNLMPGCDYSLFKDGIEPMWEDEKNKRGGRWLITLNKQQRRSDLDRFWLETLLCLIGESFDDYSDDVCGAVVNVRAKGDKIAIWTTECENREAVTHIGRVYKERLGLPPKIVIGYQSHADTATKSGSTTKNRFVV
- assay: Human eIF4E/4G2 binding assay (TR-FRET)
- conditionLabel: Human eIF4E/4G2 TR-FRET binding assay; head says IC50, legend says EC50

Examples from the recorded data:
{"columns": ["molecule", "IC50"],
 "data": [
  ["CC(C)Cc1sc(NCC(N)C(=O)O)nc1-c1ccc(Cl)c(Cl)c1 (centres unmarked)", "> 10000 nM"],
  ["CC(C)Cc1sc(Nc2nnccc2C(=O)O)nc1-c1ccc(Cl)c(Cl)c1", "1000 to 10000 nM"],
  ["O=Cc1sc(N(CCC(=O)O)Cc2ccccc2)nc1-c1ccc(Cl)c(Cl)c1", "1000 to 10000 nM"],
  ["CC(C)c1sc(Nc2c(C(=O)O)sc3ccccc23)nc1-c1ccc(Cl)c(C(F)(F)F)c1", "≤ 1000 nM"]
]}

Continue with the molecule presented below.
Query: Please indicate IC50 recorded for CC(C)Cc1sc(NCC(NC(=O)OCc2ccccc2)C(=O)O)nc1-c1ccc(Cl)c(Cl)c1 (centres unmarked)
Response: ≤ 1000 nM

----------
- testedTarget: Human eIF4E (aa 28-217) / biotin labeled 4G2 peptide (Homo sapiens (Human))
- assay: Human eIF4E/4G2 binding assay (TR-FRET)
- conditionLabel: Human eIF4E/4G2 TR-FRET binding assay; head says IC50, legend says EC50
pIC50: −log10 of the molar value.
recordedEndpoint: pIC50

Examples from the recorded data:
{"columns": ["compound", "pIC50"],
 "data": [
  ["CC(C)Cc1sc(Nc2ccc(O)c(C(=O)O)c2)nc1-c1ccc(Cl)c(Cl)c1", "5.00 to 6.00"],
  ["O=C(O)C(CNc1nc(-c2ccc(Cl)c(Cl)c2)c(CC(F)(F)F)s1)Cc1ccccc1 (stereo not shown)", "5.00 to 6.00"]
]}

Query: Please indicate pIC50 recorded for "CC(C)c1sc(Nc2ncc(-c3cccs3)cc2C(=O)O)nc1-c1ccc(Cl)c(Cl)c1"
Response: ≥ 6.00

Query: Please indicate pIC50 recorded for "CC(C)c1sc(Nc2ncc(Cc3ccccc3)cc2C(=O)O)nc1-c1ccc(Cl)c(C(F)(F)F)c1"
Response: ≥ 6.00

----------
- testedTarget: Human eIF4E (aa 28-217) / biotin labeled 4G2 peptide (Homo sapiens (Human))
- assay: Human eIF4E/4G2 binding assay (TR-FRET)
- conditionLabel: Human eIF4E/4G2 TR-FRET binding assay; head says IC50, legend says EC50
pIC50: −log10 of the molar value.
Listing of recorded pIC50 by entry.

{"columns": ["compound", "testedTarget", "pIC50"],
 "data": [
  ["CC(C)Cc1sc(NCC(CCc2ccccc2)C(=O)O)nc1-c1ccc(Cl)c(Cl)c1 (centres unmarked) [I-23]", "Human eIF4E (aa 28-217) / biotin labeled 4G2 peptide (Homo sapiens (Human))", "≥ 6.00"],
  ["CC(C)Cc1sc(N(CCC(=O)O)Cc2ccccc2O)nc1-c1ccc(Cl)c(Cl)c1 [I-50]", "Human eIF4E (aa 28-217) / biotin labeled 4G2 peptide (Homo sapiens (Human))", "5.00 to 6.00"],
  ["CC(C)Cc1sc(-c2ccc(C(F)(F)F)c(C(=O)O)c2)nc1-c1ccc(Cl)c(Cl)c1 [I-227]", "Human eIF4E (aa 28-217) / biotin labeled 4G2 peptide (Homo sapiens (Human))", "5.00 to 6.00"],
  ["CC(C)c1sc(NCC(Cc2cccc(O)c2)C(=O)O)nc1-c1ccc(Cl)cc1 (centres unmarked) [I-41]", "Human eIF4E (aa 28-217) / biotin labeled 4G2 peptide (Homo sapiens (Human))", "5.00 to 6.00"]
]}

Continue with the compound presented below.
Query: Please indicate pIC50 recorded for CC(C)Cc1sc(-c2cc(C(=O)O)c(F)cn2)nc1-c1ccc(Cl)c(Cl)c1 [I-240]
Response: 5.00 to 6.00
